Biological target: P-gp (MDR1) (Homo sapiens (Human), UniProt P08183)
Sequence (P08183 whole entry, species assumed): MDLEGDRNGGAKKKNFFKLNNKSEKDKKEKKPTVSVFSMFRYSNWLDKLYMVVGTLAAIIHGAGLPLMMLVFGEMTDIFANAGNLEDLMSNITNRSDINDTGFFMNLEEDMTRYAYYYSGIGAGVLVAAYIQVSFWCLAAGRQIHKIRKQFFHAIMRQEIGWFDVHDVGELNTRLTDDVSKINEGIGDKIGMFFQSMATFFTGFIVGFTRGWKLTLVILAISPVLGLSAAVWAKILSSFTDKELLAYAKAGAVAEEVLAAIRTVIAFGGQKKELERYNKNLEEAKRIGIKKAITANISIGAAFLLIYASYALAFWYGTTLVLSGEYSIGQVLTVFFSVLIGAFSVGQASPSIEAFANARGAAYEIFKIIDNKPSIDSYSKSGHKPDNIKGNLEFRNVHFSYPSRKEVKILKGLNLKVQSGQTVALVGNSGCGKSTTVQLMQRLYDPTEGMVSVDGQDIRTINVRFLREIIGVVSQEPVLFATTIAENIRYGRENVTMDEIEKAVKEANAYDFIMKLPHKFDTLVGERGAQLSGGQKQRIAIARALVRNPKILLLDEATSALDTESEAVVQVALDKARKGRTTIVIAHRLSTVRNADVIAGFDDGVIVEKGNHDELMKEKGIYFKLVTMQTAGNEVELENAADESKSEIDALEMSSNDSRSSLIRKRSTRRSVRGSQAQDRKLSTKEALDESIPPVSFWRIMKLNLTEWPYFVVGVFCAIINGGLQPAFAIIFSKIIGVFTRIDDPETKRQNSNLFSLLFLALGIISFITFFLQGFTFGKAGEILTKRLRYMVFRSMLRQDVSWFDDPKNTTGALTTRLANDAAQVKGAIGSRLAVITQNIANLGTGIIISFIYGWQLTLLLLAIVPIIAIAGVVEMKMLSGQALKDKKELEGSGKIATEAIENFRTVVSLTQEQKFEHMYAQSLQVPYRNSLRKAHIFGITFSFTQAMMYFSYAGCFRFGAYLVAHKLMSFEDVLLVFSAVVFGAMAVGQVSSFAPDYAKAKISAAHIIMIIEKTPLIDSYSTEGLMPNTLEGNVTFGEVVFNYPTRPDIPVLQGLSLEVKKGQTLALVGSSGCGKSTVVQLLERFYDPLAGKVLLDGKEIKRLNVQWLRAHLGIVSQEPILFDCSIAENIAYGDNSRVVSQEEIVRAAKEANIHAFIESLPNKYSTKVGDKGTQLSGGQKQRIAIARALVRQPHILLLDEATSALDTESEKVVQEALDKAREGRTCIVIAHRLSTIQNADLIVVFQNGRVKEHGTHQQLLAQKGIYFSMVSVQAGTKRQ
Experiment: MDR1 LLC-PK1 permeability assay: efflux ratio
Assay type: in vitro ADME
Details: pig
Source text: Final organic concentration in the assay was 1%.
Structures can show the parent of a compound that is named as a salt.
attributeMeasured: efflux ratio at 2 h, 1 µM

Field: example entries. Status: answers known.
compound | measuredOn | efflux ratio at 2 h, 1 µM
Cn1cnc2ccc(Nc3c(F)ccc(NS(=O)(=O)N4CC(F)C4)c3Cl)c(F)c2c1=O [Example 127, trifluoroacetate] | P-gp (MDR1) (Homo sapiens (Human), UniProt P08183) | 3.8
Cn1cnc2ccc(Nc3c(F)ccc(NS(=O)(=O)N4CC[C@@H](OC(F)F)C4)c3Cl)c(Cl)c2c1=O | P-gp (MDR1) (Homo sapiens (Human), UniProt P08183) | 1.7
Cc1c(Nc2c(F)ccc(NS(=O)(=O)N3CCC3)c2Cl)ccc2ncn(C)c(=O)c12 [Example 124, trifluoroacetate] | P-gp (MDR1) (Homo sapiens (Human), UniProt P08183) | 1.1
Cc1c(Nc2c(F)ccc(NS(=O)(=O)N3CC(C)(F)C3)c2Cl)ccc2ncn(C)c(=O)c12 [Example 155, trifluoroacetate] | P-gp (MDR1) (Homo sapiens (Human), UniProt P08183) | 1.4
COC1CN(S(=O)(=O)Nc2ccc(F)c(Nc3ccc4ncn(C)c(=O)c4c3F)c2Cl)C1 | P-gp (MDR1) (Homo sapiens (Human), UniProt P08183) | 2.3

P: CO[C@@H]1CN(S(=O)(=O)Nc2ccc(F)c(Nc3ccc4ncn(C)c(=O)c4c3F)c2Cl)C[C@@H]1F (relative stereo)
Q: CCN(C)S(=O)(=O)Nc1ccc(F)c(Nc2ccc3ncn(C)c(=O)c3c2Cl)c1Cl
R: Cn1cnc2ccc(Nc3c(F)ccc(NS(=O)(=O)N4CC(F)(F)C4)c3Cl)c(Cl)c2c1=O
S: CCOC1CN(S(=O)(=O)Nc2ccc(F)c(Nc3ccc4ncn(C)c(=O)c4c3F)c2Cl)C1
Q) Rank entries according to their efflux ratio at 2 h, 1 µM, from the largest number down. Hello, could you send the labels back in the order asked? Thank you.
A) P, S, R, Q
(P: 6.8, S: 3.2, R: 1.9, Q: 1.2)

P: CCC1CCN(S(=O)(=O)Nc2ccc(F)c(Nc3ccc4ncn(C)c(=O)c4c3Cl)c2Cl)C1 (stereo not drawn) [Example 94, trifluoroacetate]
Q: Cn1cnc2ccc(Oc3c(F)ccc(NS(=O)(=O)N4CCCC4)c3Cl)c(F)c2c1=O [Example 44, trifluoroacetate]
Q) Parameter check: reported efflux ratio at 2 h, 1 µM is higher for which label, P or Q ? Identify your selection by its label.
A) Q
(Q: 1.4, P: 0.9)

P: Cc1c(Nc2cc(Cl)cc(NS(=O)(=O)N3CCCC3)c2F)ccc2ncn(C)c(=O)c12
Q: Cc1c(Nc2c(F)ccc(NS(=O)(=O)N3CC(OC(F)F)C3)c2Cl)ccc2ncn(C)c(=O)c12
Q) Dear colleague, could you let me know whether P or Q has the lower recorded efflux ratio at 2 h, 1 µM? Thanks. Identify your selection by its label.
A) P

----------
system: H1755 cells; assay: Cellular phospho-ERK inhibition assay in H1755 cells; assay type: cell-based; conditions: Homo sapiens, NCI-H1755, 2 hours treatment, read-out: H1755 Cell IC50
Where a name gives a salt, the structure may show the parent alone.
attributeMeasured: IC50 (nM)

molecule | measuredOn | unitSymbol | reportedValue
Cn1cnc2ccc(Oc3c(F)ccc(NS(=O)(=O)N4CCC(F)(F)C4)c3Cl)c(F)c2c1=O [Example 63] | H1755 cells | nM | 84

a: COC1CN(S(=O)(=O)Nc2ccc(F)c(Nc3ccc4ncn(C)c(=O)c4c3Cl)c2Cl)C1 [Example 129]
b: Cc1c(Nc2c(F)ccc(NS(=O)(=O)N3CC[C@@H](F)C3)c2F)ccc2ncn(C)c(=O)c12 [Example 114, trifluoroacetate]
c: Cn1cnc2ccc(Nc3c(F)ccc(NS(=O)(=O)N4CC5CC4C5)c3Cl)c(Cl)c2c1=O [Example 9, trifluoroacetate]
d: Cn1cnc2ccc(Nc3c(F)ccc(NS(=O)(=O)N4CC[C@@H](OC(F)F)C4)c3Cl)c(F)c2c1=O [Example 26]
e: CCN(C)S(=O)(=O)Nc1ccc(F)c(Oc2ccc3ncn(C)c(=O)c3c2C)c1Cl [Example 68]
Q) Which order do these items take when sorted by rising IC50? List them. Hello, could you send the labels back in the order asked? Thank you.
A) d, a, c, b, e
(d: 15 nM, a: 37 nM, c: 85 nM, b: 174 nM, e: 286 nM)

----------
biological target: full-length FLAG-tagged B-Raf(V600E) (Homo sapiens (Human), UniProt P15056, V600E); test: BRAF V600E enzyme assay (TR-FRET competitive displacement); type: binding; details: averaged IC50; TR-FRET tracer displacement, 60 min
Sequence (P15056 whole entry V600E): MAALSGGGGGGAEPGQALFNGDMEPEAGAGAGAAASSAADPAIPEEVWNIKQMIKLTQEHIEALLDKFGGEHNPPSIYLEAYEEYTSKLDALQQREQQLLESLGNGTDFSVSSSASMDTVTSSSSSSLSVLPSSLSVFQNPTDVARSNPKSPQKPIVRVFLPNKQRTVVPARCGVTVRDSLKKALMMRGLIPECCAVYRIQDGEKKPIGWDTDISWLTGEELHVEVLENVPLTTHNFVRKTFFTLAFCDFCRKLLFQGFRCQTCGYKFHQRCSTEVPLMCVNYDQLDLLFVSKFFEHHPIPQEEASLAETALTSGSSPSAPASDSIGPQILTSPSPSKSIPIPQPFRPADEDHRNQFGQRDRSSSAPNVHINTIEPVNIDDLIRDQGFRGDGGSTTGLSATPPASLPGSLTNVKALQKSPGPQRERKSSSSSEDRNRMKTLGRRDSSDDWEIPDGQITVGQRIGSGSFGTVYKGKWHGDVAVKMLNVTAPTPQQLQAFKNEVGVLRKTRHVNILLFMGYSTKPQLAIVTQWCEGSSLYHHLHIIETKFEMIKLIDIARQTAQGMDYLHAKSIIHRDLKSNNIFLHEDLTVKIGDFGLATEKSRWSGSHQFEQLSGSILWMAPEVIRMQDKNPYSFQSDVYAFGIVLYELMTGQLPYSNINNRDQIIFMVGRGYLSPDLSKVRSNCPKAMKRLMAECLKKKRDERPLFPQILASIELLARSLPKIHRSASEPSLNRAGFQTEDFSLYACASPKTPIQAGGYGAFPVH
pIC50: −log10 of the molar value. Counter-ions that a name gives are not always drawn.
attributeMeasured: pIC50

Field: example entries. Status: answers known.
molecule | pIC50
Cc1c(Nc2c(F)ccc(NS(=O)(=O)N(C)C)c2Cl)ccc2ncn(C)c(=O)c12 [Example 71] | 6.52
Cn1cnc2ccc(Nc3c(F)c(F)cc(NS(=O)(=O)N4CCCC4)c3Cl)c(Cl)c2c1=O [Example 31, trifluoroacetate] | 9.00
COCC1CN(S(=O)(=O)Nc2ccc(F)c(Oc3ccc4ncn(C)c(=O)c4c3F)c2Cl)C1 [Example 121] | 8.05

P: Cn1cnc2ccc(Nc3c(F)ccc(NS(=O)(=O)N4CC(COC(F)F)C4)c3Cl)c(Cl)c2c1=O [Example 138, trifluoroacetate]
Q: Cn1cnc2ccc(Nc3c(F)ccc(NS(=O)(=O)N4CCCC4)c3Cl)c(Cl)c2c1=O [Example 12, trifluoroacetate]
R: Cc1c(Nc2c(F)ccc(NS(=O)(=O)N3CC[C@@H](OC(F)F)C3)c2Cl)ccc2ncn(C)c(=O)c12 [Example 89]
S: CN(C)S(=O)(=O)Nc1ccc(F)c(Nc2ccc3ncn(C)c(=O)c3c2Cl)c1Cl [Example 3]
Q) Which order do these items take when sorted by rising pIC50? List them. Hello, could you send the labels back in the order asked? Thank you.
A) S, R, Q, P

----------
target: BCRP (Homo sapiens (Human), UniProt Q9UNQ0); assay: BCRP MDCKII permeability assay: efflux ratio; type: in vitro ADME; settings: dog
Sequence (Q9UNQ0 whole entry): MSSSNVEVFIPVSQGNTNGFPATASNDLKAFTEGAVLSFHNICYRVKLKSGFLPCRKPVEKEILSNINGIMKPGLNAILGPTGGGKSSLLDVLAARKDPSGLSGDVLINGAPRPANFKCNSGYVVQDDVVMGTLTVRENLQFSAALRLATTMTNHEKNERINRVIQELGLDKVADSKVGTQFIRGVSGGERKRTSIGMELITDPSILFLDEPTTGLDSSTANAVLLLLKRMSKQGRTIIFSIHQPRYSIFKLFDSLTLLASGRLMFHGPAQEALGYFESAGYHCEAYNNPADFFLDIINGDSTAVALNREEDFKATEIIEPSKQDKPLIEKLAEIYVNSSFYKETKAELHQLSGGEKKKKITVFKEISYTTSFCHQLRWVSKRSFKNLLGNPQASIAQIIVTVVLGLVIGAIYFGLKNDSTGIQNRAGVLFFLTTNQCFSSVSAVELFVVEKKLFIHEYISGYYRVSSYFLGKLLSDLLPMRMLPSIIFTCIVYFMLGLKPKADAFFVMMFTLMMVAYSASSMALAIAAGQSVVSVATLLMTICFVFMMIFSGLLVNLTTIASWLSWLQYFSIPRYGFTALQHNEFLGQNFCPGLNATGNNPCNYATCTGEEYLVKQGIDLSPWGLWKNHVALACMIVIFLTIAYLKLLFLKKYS
Structures can show the parent of a compound that is named as a salt.
attributeMeasured: efflux ratio at 2 h, 1 µM

compound | measuredOn | efflux ratio at 2 h, 1 µM
CC[C@@H]1CCN(S(=O)(=O)Nc2ccc(F)c(Nc3ccc4ncn(C)c(=O)c4c3F)c2Cl)C1 [Example 62, trifluoroacetate] | BCRP (Homo sapiens (Human), UniProt Q9UNQ0) | 1
CCOC1CN(S(=O)(=O)Nc2ccc(F)c(Nc3ccc4ncn(C)c(=O)c4c3F)c2Cl)C1 [Example 142] | BCRP (Homo sapiens (Human), UniProt Q9UNQ0) | 2.5
Cn1cnc2ccc(Nc3c(F)ccc(NS(=O)(=O)N4CC5CC4C5)c3Cl)c(F)c2c1=O [Example 13] | BCRP (Homo sapiens (Human), UniProt Q9UNQ0) | 1.8
Cc1c(Nc2c(F)c(F)cc(NS(=O)(=O)N(C)C)c2Cl)ccc2ncn(C)c(=O)c12 [Example 98] | BCRP (Homo sapiens (Human), UniProt Q9UNQ0) | 1.1
CO[C@@H]1CCN(S(=O)(=O)Nc2ccc(F)c(Oc3ccc4ncn(C)c(=O)c4c3Cl)c2Cl)C1 [Example 37] | BCRP (Homo sapiens (Human), UniProt Q9UNQ0) | 1.5

1: CO[C@@H]1CCN(S(=O)(=O)Nc2ccc(F)c(Oc3ccc4ncn(C)c(=O)c4c3C)c2Cl)C1 [Example 10]
2: COCC1CN(S(=O)(=O)Nc2ccc(F)c(Oc3ccc4ncn(C)c(=O)c4c3F)c2Cl)C1 [Example 121]
Q) Dear colleague, could you let me know whether 1 or 2 has the lower recorded efflux ratio at 2 h, 1 µM? Thanks. Identify your selection by its label.
A) 1
(1: 0.7, 2: 6)

a: Cn1cnc2ccc(Nc3cc(Cl)cc(NS(=O)(=O)N4CC[C@@H](F)C4)c3F)c(Cl)c2c1=O [Example 56, trifluoroacetate]
b: Cn1cnc2ccc(Nc3c(F)ccc(NS(=O)(=O)N4CC[C@@H](F)C4)c3Cl)c(F)c2c1=O [Example 14]
c: COC1CN(S(=O)(=O)Nc2ccc(F)c(Oc3ccc4ncn(C)c(=O)c4c3C)c2Cl)C1 [Example 117]
Q) Rank entries according to their efflux ratio at 2 h, 1 µM, from the largest number down. Hello, could you send the labels back in the order asked? Thank you.
A) b, a, c

----------
assay: MDR1 LLC-PK1 and BCRP MDCKII permeability assay: permeability coefficient (Papp); format: in vitro ADME
Counter-ions that a name gives are not always drawn.
attributeMeasured: Papp at 2 h, 1 µM (×10⁻⁶ cm/s)

Field: example entries. Status: answers known.
compound | Papp at 2 h, 1 µM, ×10⁻⁶ cm/s
CN(C)S(=O)(=O)Nc1ccc(F)c(Oc2ccc3ncn(C)c(=O)c3c2Cl)c1Cl [Example 110] | 34
Cc1c(Nc2c(F)ccc(NS(=O)(=O)N3C[C@H](F)[C@@H](F)C3)c2Cl)ccc2ncn(C)c(=O)c12 (relative stereo) [Example 85] | 26
COCC1(F)CN(S(=O)(=O)Nc2ccc(F)c(Nc3ccc4ncn(C)c(=O)c4c3C)c2Cl)C1 [Example 145, trifluoroacetate] | 29
Cn1cnc2ccc(Nc3c(F)ccc(NS(=O)(=O)N4CCCC4)c3Cl)c(Br)c2c1=O [Example 11, trifluoroacetate] | 28
CO[C@@H]1CCN(S(=O)(=O)Nc2ccc(F)c(Nc3ccc4ncn(C)c(=O)c4c3F)c2Cl)C1 [Example 5] | 27

a: Cn1cnc2ccc(Nc3c(F)ccc(NS(=O)(=O)N4CC[C@@H](OC(F)F)C4)c3Cl)c(Cl)c2c1=O [Example 29]
b: COCC1CN(S(=O)(=O)Nc2ccc(F)c(Nc3ccc4ncn(C)c(=O)c4c3C)c2Cl)C1 [Example 131]
Q) Parameter check: reported Papp at 2 h, 1 µM is higher for which label, a or b ? Identify your selection by its label.
A) b

A: Cn1cnc2ccc(Oc3c(F)ccc(NS(=O)(=O)N4CC5CC4C5)c3Cl)c(F)c2c1=O [Example 49]
B: COC1CN(S(=O)(=O)Nc2ccc(F)c(Nc3ccc4ncn(C)c(=O)c4c3C)c2Cl)C1 [Example 128, trifluoroacetate]
Q) Parameter check: reported Papp at 2 h, 1 µM is higher for which label, A or B ? Identify your selection by its label.
A) B
(B: 49 ×10⁻⁶ cm/s, A: 30 ×10⁻⁶ cm/s)

A: Cn1cnc2ccc(Oc3c(F)ccc(NS(=O)(=O)N4CC5CC5C4)c3Cl)c(Cl)c2c1=O (centres unmarked) [Example 108]
B: COCC1CN(S(=O)(=O)Nc2ccc(F)c(Nc3ccc4ncn(C)c(=O)c4c3Cl)c2Cl)C1 [Example 132, trifluoroacetate]
Q) Dear colleague, could you let me know whether A or B has the lower recorded Papp at 2 h, 1 µM? Thanks. Identify your selection by its label.
A) A
(A: 25 ×10⁻⁶ cm/s, B: 36 ×10⁻⁶ cm/s)
